Protocol Text: Dithiothreitol (DTT) Redox Stability Assay
Assay type: physicochemical
Particulars: Table 4-C, t1/2, 0.5 mM DTT
Bridge positions count the residues as written; N and C are the ends. Square brackets hold non-standard residues; d marks the D form. Peptide text beside a SMILES is read from it. 2Nal = N[C@@H](Cc1ccc2ccccc2c1)C(=O)O; NMeR = CN[C@@H](CCCNC(=N)N)C(=O)O; Pen = CC(C)(S)[C@H](N)C(=O)O
# DTT Min >= 6 min gives YES, anything below gives NO

Inquiry: Textbook exercise: given the entry CC(=O)N[C@H]1CSSC[C@@H](C(N)=O)NC(=O)[C@H](CC(C)C)NC(=O)[C@H]([C@@H](C)O)NC(=O)[C@H](CC(=O)O)NC(=O)[C@H](CO)NC(=O)[C@H](CCCNC(=N)N)NC1=O [compound 195, Ac-C-R-S-D-T-L-C-NH2] (Ac-CRSDTLC-NH2; disulfide 1-7) , state whether its DTT Min is greater than or equal to 6 min.
Reply text: NO

Inquiry: DTT Min >= 6 min for CC(=O)N[C@H]1CSSC(C)(C)[C@@H](C(=O)N[C@H](CCCCN)C(N)=O)NC(=O)[C@H](CC(C)C)NC(=O)[C@H]([C@@H](C)O)NC(=O)[C@H](CC(=O)O)NC(=O)[C@H](CO)NC(=O)[C@H](CCCNC(=N)N)N(C)C1=O [compound 202, Ac-C-N-Me-R-S-D-T-L-Pen-k-NH2] (Ac-C[NMeR]SDTL[Pen][dK]-NH2; disulfide 1-7) ?
Reply text: YES

Inquiry: DTT Min >= 6 min for CC(=O)N[C@@H]1C(=O)N[C@@H](CCCNC(=N)N)C(=O)N[C@@H](CO)C(=O)N[C@@H](CC(=O)O)C(=O)N[C@@H]([C@@H](C)O)C(=O)N[C@@H](CC(C)C)C(=O)N[C@H](C(=O)N[C@H](CCCCN)C(N)=O)CSSC1(C)C [compound 206, Ac-Pen-R-S-D-T-L-C-k-NH2] (Ac-[Pen]RSDTLC[dK]-NH2; disulfide 1-7) ?
Reply text: YES

Inquiry: Is DTT Min at least 6 min? Consider CC(=O)N[C@@H]1C(=O)N(C)[C@@H](CCCNC(=N)N)C(=O)N[C@@H](CO)C(=O)N[C@@H](CC(=O)O)C(=O)N[C@@H]([C@@H](C)O)C(=O)N[C@@H](CC(C)C)C(=O)N[C@H](C(=O)N[C@@H](Cc2ccc3ccccc3c2)C(=O)N[C@@H](CCC(=O)O)C(=O)N[C@H](CCCCN)C(N)=O)C(C)(C)SSC1(C)C [compound 210, Ac-Pen-N-Me-R-S-D-T-L-Pen-2-Nal-E-k-NH2] (Ac-[Pen][NMeR]SDTL[Pen][2Nal]E[dK]-NH2; disulfide 1-7)
Reply text: YES

Inquiry: Entry CC(=O)N[C@H]1CSSC[C@@H](C(=O)NCC(=O)N[C@@H](CCC(=O)O)C(N)=O)NC(=O)[C@H](CC(C)C)NC(=O)[C@H]([C@@H](C)O)NC(=O)[C@H](CC(=O)O)NC(=O)[C@H](CO)NC(=O)[C@H](CCCNC(=N)N)N(C)C1=O [compound 198, Ac-C-N-Me-R-S-D-T-L-C-G-E-NH2] (Ac-C[NMeR]SDTLCGE-NH2; disulfide 1-7) : is its DTT Min no less than 6 min?
Reply text: NO

Inquiry: Assess whether reported DTT Min for CC(=O)N[C@@H]1C(=O)N(C)[C@@H](CCCNC(=N)N)C(=O)N[C@@H](CO)C(=O)N[C@@H](CC(=O)O)C(=O)N[C@@H]([C@@H](C)O)C(=O)N[C@@H](CC(C)C)C(=O)N[C@H](C(=O)N[C@@H](Cc2c[nH]c3ccccc23)C(=O)N[C@H](CCCCN)C(N)=O)C(C)(C)SSC1(C)C [compound 208, Ac-Pen-N-Me-R-S-D-T-L-Pen-W-k-NH2] (Ac-[Pen][NMeR]SDTL[Pen]W[dK]-NH2; disulfide 1-7) sits at 6 min or higher.
Reply text: YES

Inquiry: Test whether the compound CC(=O)N[C@H]1CSSC[C@@H](C(=O)NCC(=O)N[C@@H](CCC(=O)O)C(N)=O)NC(=O)[C@H](CC(C)C)NC(=O)[C@H]([C@@H](C)O)NC(=O)[C@H](CC(=O)O)NC(=O)[C@H](CO)NC(=O)[C@H](CCCNC(=N)N)NC1=O [compound 194, Ac-C-R-S-D-T-L-C-G-E-NH2] (Ac-CRSDTLCGE-NH2; disulfide 1-7) records DTT Min of 6 min or higher.
Reply text: NO
